This listing pairs compounds with measured RP-LC retention time.
- procedure-summary: gradient 5% acetonitrile 3 min, to 50% in 2 min, to 85% in 15 min, held 3 min, 100 µL/min
- assay-setup: column: Zorbax Extend-C18 2.1 x 50 mm; eluents: water / acetonitrile, 0.1% formic acid
reported-metric: RP-LC retention time (s)

1) Cc1cccc(NC(=O)C2CCc3nc(N4CCOCC4)ncc3C2)c1 (centres undefined) :: 786
2) Cc1cccc(CNC(=O)c2c(C)sc3ccn(C)c(=O)c23)c1 :: 787
3) COc1cccc(CC(=O)N2CCC3(CC2)NC(=O)c2cc(C)ccc2N3C)c1 :: 798
4) CCCCc1nnc(NC(=O)C2CC(=O)N(CCc3c[nH]c4ccc(C)cc34)C2)s1 (centres undefined) :: 802

###

This listing pairs molecules with measured RP-LC retention time.
- procedure-summary: gradient 5% acetonitrile 3 min, to 50% in 2 min, to 85% in 15 min, held 3 min, 100 µL/min
- assay-setup: column: Zorbax Extend-C18 2.1 x 50 mm; eluents: water / acetonitrile, 0.1% formic acid
reported-metric: RP-LC retention time (s)

1. O=C(Cc1nnc(-c2ccc3ncccc3c2)o1)NC1CCCCC1 :: 679
2. O=C(CN1C(=O)NC2(CCCCC2)C1=O)Nc1ccccc1 :: 722
3. O=C(N1CCC(Cc2ccc(COCc3ccncc3)cc2)CC1)C1(c2ccccc2)CC1 :: 795
4. O=C(Nc1cccc(Cl)c1F)N1CCc2nc[nH]c2C1 :: 589
5. Cc1sc(-c2nc(C(C)C)cs2)cc1S(=O)(=O)NC1CCCC1 :: 1240
6. CCOc1cc(C(=O)N2CCN(c3cc(-c4cccs4)[nH]n3)CC2)cc(OCC)c1OCC :: 907

###

- procedure-summary: gradient 5% acetonitrile 3 min, to 50% in 2 min, to 85% in 15 min, held 3 min, 100 µL/min
- assay-setup: column: Zorbax Extend-C18 2.1 x 50 mm; eluents: water / acetonitrile, 0.1% formic acid
reported-metric: RP-LC retention time

1) CCCN1CCN(C(=O)c2ccc(CN3CCN(Cc4ccccc4)C(=O)C3=O)cc2)CC1 :: 811 s
2) Cc1ccc(S(=O)(=O)N2CCC3(CC2)NCCN=C3NCc2cc(F)cc(F)c2)cc1C :: 798 s
3) O=C(CSc1nccn(-c2ccc(F)c(F)c2)c1=O)NCc1ccccc1Cl :: 816 s
4) CC(C)Cn1cc(S(=O)(=O)NCc2cccc(F)c2)c2cccnc21 :: 953 s
5) CCc1c(C2CCN(C(=O)c3cc(C)oc3C)CC2)noc1N :: 704 s
6) CC(=O)c1ccc(S(=O)(=O)N2CCc3nc[nH]c3C2)cc1 :: 585 s
7) O=C(Nc1cnn(-c2ncc(N3CCSCC3)cn2)c1)C1CCOC1 (centres undefined) :: 640 s
8) CCOc1ccc(NC(=O)N2CCC3(C2)C(=O)Nc2ccccc23)cc1 (centres undefined) :: 720 s
9) O=C(CCc1cn(-c2ccccc2)nc1-c1ccc2c(c1)OCO2)NCCc1ccco1 :: 1100 s
10) COc1ccc(NC(=O)Cn2nc3nc(N4CCCC(C)C4)ccn3c2=O)cc1OC (centres undefined) :: 844 s
11) O=C(NCc1ccc(F)cc1)c1ccnc(N2CCNC(c3ccccc3)C2)c1 (centres undefined) :: 635 s
12) COC(=O)c1cc(S(=O)(=O)N2CCCC2C(=O)N2CCC(C)CC2)cn1C (centres undefined) :: 770 s
13) Cc1ccc(NC(=O)N2CCCC(Cn3c(C4CC4)nc4cccnc43)C2)cc1F (centres undefined) :: 717 s
14) Cc1nn(C(C)C(=O)NCCCN(C)C2CCCCC2)c(=O)c2c(C)n(-c3ccccc3)nc12 (centres undefined) :: 675 s
15) Cc1cc(C)cc(C(=O)NCc2[nH]nc3ccccc23)c1 :: 814 s
16) CCOc1nc2ccccc2nc1N1CCCC(C(=O)Nc2ccccc2)C1 (centres undefined) :: 1180 s
17) Cc1ccc(NS(=O)(=O)c2ccc(-c3c(C)noc3C)cc2)c(Cl)c1 :: 1020 s
18) COc1ccccc1NC(=O)c1cc(=O)n2c(nc3ccccc32)s1 :: 964 s
19) CCCNc1cc(N2CCCC(CCC(=O)Nc3ccccc3)C2)ncn1 (centres undefined) :: 703 s
20) CC(NC(=O)Cc1cccn1-c1ccc(F)cc1)c1ccccc1 (centres undefined) :: 962 s
21) CC1CCN(S(=O)(=O)c2ccc3c(c2)CCCC(=O)N3CC(=O)NCc2ccccc2)CC1 :: 907 s
22) Cc1ccsc1C(=O)NCC1CN(C(C)C)CC12CCCCC2 (centres undefined) :: 652 s
23) O=C1NC2(CCN(C(=O)c3ccc(F)c(F)c3)CC2)Nc2c(Cl)cccc21 :: 777 s
24) COc1ccc(NC(=O)c2cnc3c(c2)c(=O)n(C)c(=O)n3-c2ccccc2)c(OC)c1 :: 844 s

###

- procedure-summary: gradient 5% acetonitrile 3 min, to 50% in 2 min, to 85% in 15 min, held 3 min, 100 µL/min
- assay-setup: column: Zorbax Extend-C18 2.1 x 50 mm; eluents: water / acetonitrile, 0.1% formic acid
reported-metric: RP-LC retention time (s)

1) COc1cccc(NC(=O)C2CCN(S(=O)(=O)c3c(C)nn(-c4ccccc4)c3C)CC2)c1 :: 940
2) Cc1cccc(Nc2nnc(CC(=O)Nc3cc(F)ccc3Cl)s2)c1 :: 872
3) Cc1cc(Cl)ccc1NC(=O)Cc1nnc(-c2ccc3ncccc3c2)o1 :: 766
4) CN1C/C=C/CCOc2cccc(c2)-c2ccnc(n2)Nc2cccc(c2)C1 :: 742
5) Cc1ccc(S(=O)(=O)Nc2ccc3c(c2)CCC(=O)N3CC(C)C)cc1Cl :: 994
6) COc1ccc(S(=O)(=O)Nc2cc(-c3cn4cccc(C)c4n3)ccc2C)cc1 :: 664
7) CCCNC(=O)C1CCCN(c2ccc(SCC(=O)Nc3ccccc3OCC)nn2)C1 (centres undefined) :: 736
8) COc1ccc(N2C(=O)c3cc(C)nn3CC2(C)C(=O)NCc2ccc(F)cc2)cc1 (centres undefined) :: 770
9) Cc1ccc(-c2nnc(-c3nc(NCCN4CCCC4)c4ccccc4n3)o2)cc1 :: 713
10) CCC(=O)Nc1ccc(OCc2cc(C(=O)NC3CCCC3)no2)cc1 :: 740
11) CCn1nnc2ccc(-c3noc(C(C)NC(=O)c4ccccc4)n3)cc21 (centres undefined) :: 689
12) CCOc1ccc(C(C)NC(=O)c2cc(NC(C)=O)cc3nc(C)ccc23)cc1 (centres undefined) :: 649
13) Cc1cccc(NC(=O)c2cccn2Cc2noc(C3CC3)n2)c1C :: 954
14) COc1ccccc1/C=C/c1nc(C#N)c(NCCCN(C)C)o1 :: 658
15) CCCN1C(=O)COc2cc(-c3noc(C(=O)NC4CCCC4)n3)ccc21 :: 977
16) COC(=O)c1c(C)[nH]c(C(=O)N2CCCC(C(=O)N3CCN(c4cccc(Cl)c4)CC3)C2)c1C (centres undefined) :: 952
17) COc1cc(OC)cc(C(=O)N2CCC3(C2)C(=O)N(C)c2ccccc23)c1 (centres undefined) :: 770
18) CC(NS(=O)(=O)CCCOc1ccc2c(c1)OCO2)c1ccccc1 (centres undefined) :: 750
19) O=C(Cc1cccs1)Nc1cccc(OCc2nnc(-c3ccccc3)o2)c1 :: 905
20) Cc1ccc(-c2noc(C3CC(=O)N(c4ccccc4Cl)C3)n2)cc1 (centres undefined) :: 1010
21) COC(=O)c1cc(OCC(=O)Nc2cccc(OC)c2)c2cc(OC)ccc2n1 :: 811
22) NS(=O)(=O)c1ccc(CCNS(=O)(=O)c2cccc(-c3nc(-c4ccccc4)no3)c2)cc1 :: 952
23) COc1ccccc1NC(=O)Cn1c(C(F)(F)F)nc2cc3c(cc21)OCCO3 :: 886
24) CC(=O)N1CCc2cc(CNS(=O)(=O)c3ccccc3F)ccc21 :: 738

###

- procedure-summary: gradient 5% acetonitrile 3 min, to 50% in 2 min, to 85% in 15 min, held 3 min, 100 µL/min
- assay-setup: column: Zorbax Extend-C18 2.1 x 50 mm; eluents: water / acetonitrile, 0.1% formic acid
Recorded RP-LC retention time split into classes low (below 700 s), moderate (700 s to below 900 s), high (900 s or more)

1) Cn1c(=O)n(CC(=O)Nc2cccc(Cl)c2)c(=O)c2cnc(-c3ccccc3)nc21 :: high
2) COc1cc(CCNCc2c(C(=O)O)n(C)c3ccccc23)cc(OC)c1OC :: low
3) Cc1ccc(-c2cc3n(n2)CCCN(C(=O)c2ccc(C)s2)C3)cc1 :: high
4) CSc1ccc(-c2noc(Cn3c(=O)n(-c4cccc(F)c4)c(=O)c4sccc43)n2)cc1 :: high
5) COC(=O)COc1cc(O)c2c(=O)cc(-c3ccccc3)oc2c1 :: high
6) O=C(NC1CCCCCC1)C1CCN(S(=O)(=O)c2cc(C(=O)N3CCCC3)cs2)CC1 :: moderate
7) CCOC(=O)c1c(C)[nH]c(CCC(=O)NC2CCCCC2)c1C :: moderate
8) CCc1nc(-c2c(C)cc(C)nc2NC(=O)c2ccccc2Br)no1 :: moderate
9) COCCN1C(=O)[C@H]2CN(Cc3cc(OC)c(OC)c(OC)c3)C[C@H]2C1=O :: low
10) O=C1N(c2ccc(F)cc2)c2ncccc2S(=O)(=O)N1Cc1ccccc1 :: high
11) Cc1cc(N2CCOCC2)nc(N2CCN(S(=O)(=O)c3ccc(-c4ccccc4)cc3)CC2)n1 :: moderate
12) Cc1[nH]c(C(=O)N2CCCC(C(=O)NCCCN3CCCCCC3)C2)c(C)c1C(=O)OC(C)C (stereo not drawn) :: low
13) Cc1ccc(-n2ccnc2SCc2nc(-c3cccc(C)c3)no2)cc1 :: high
14) Cc1cc(C)n2nc(CN(C(=O)c3ccco3)c3ccccc3Cl)nc2n1 :: moderate
15) CCCN1C(=O)c2cc(S(=O)(=O)Nc3cc(F)cc(F)c3)ccc2Oc2cccnc21 :: high
16) Fc1ccc(-c2nnc(Cc3nc(-c4ccc(Cl)cc4)no3)o2)cc1 :: high
17) COc1ccc(N2CCN(c3ncc4c(n3)CCN(Cc3cccc(F)c3)C4)CC2)cc1 :: low
18) Cc1cc(C)cc(-n2ccnc2SCC(=O)Nc2cc(C)on2)c1 :: moderate
19) CC(=O)c1cccc(NC(=O)N2C[C@H](c3nc(-c4ccccc4)no3)[C@@H](C)C2)c1 :: high
20) Cc1ccc(CNC(=O)CC2CCOCC2)o1 :: low
21) CC1CC(=O)N(CC(=O)Nc2cccc(Cl)c2)c2ccccc2S1(=O)=O (stereo not drawn) :: moderate
22) Cc1ccc2[nH]c(C(=O)NCC3CCCO3)cc2c1 (stereo not drawn) :: moderate
23) Cc1onc(-c2ccc(Br)cc2)c1C(=O)NCc1cccs1 :: high
24) CCOc1ccc(N2C(=O)C3N=NN(Cc4nc(-c5ccc6c(c5)OCO6)no4)C3C2=O)cc1 (stereo not drawn) :: high

Taken from the METLIN SMRT retention time set (Domingo-Almenara et al. 2019).
